System: a variety of test species
Assay: Pre-emergence herbicidal activity (glasshouse, sprayed one day after sowing, evaluated after 13 days)
Assay type: in vivo
Parameters: key: 5=total damage to plant; 0=no damage to plant
Conditions: AMARE, application pre-emergence, rate 1000 g/Ha, scale 0-5
Quantity kind: Pre-emergence herbicidal damage score, AMARE

Molecule: CCOC1=C(C)C(O)N(c2cc(C(C)(C)C#N)on2)C1=O (centres unmarked) [D6]
Recorded result: 5
//
Molecule: COC1=C(C)C(O)N(c2noc(C(C)(C)C)c2C#N)C1=O (centres unmarked) [D2]
Recorded result: 5
//
Molecule: CC(C)C1=C(Cl)C(=O)N(c2cc(C(C)(C)C)on2)C1O (centres unmarked) [A18]
Recorded result: 1
//
Molecule: CC1=C(Cl)C(=O)N(c2noc(C(C)(C)C)c2F)C1O (centres unmarked) [A19]
Recorded result: 5
//
Molecule: CC1=C(Cl)C(=O)N(c2cc(CC(C)C)on2)C1O (centres unmarked) [A12]
Recorded result: 4
//
Molecule: CCCCC(C)(C)c1onc(N2C(=O)C(Cl)=C(C)C2O)c1C#N (centres unmarked) [A47]
Recorded result: 5
//
Molecule: COCC(C)(C)c1cc(N2C(=O)C(Cl)=C(C)C2O)no1 (centres unmarked) [A7]
Recorded result: 5
//
Molecule: CC1=C(Br)C(=O)N(c2noc(C(C)(C)C)c2C#N)C1O (centres unmarked) [A50]
Recorded result: 5
//
Molecule: COC1=C(OC)C(O)N(c2cc(C(C)(C)C)on2)C1=O (centres unmarked) [F1]
Recorded result: 5
//
Molecule: CCCC1=C(Cl)C(=O)N(c2noc(C(C)C)c2C#N)C1O (centres unmarked) [A69]
Recorded result: 2
//
Molecule: CCC(C)(C)c1onc(N2C(=O)C(Cl)=C(C)C2O)c1C#N (centres unmarked) [A40]
Recorded result: 5
